- measurement_target: T1, human TMEM106B (human, UniProt Q9NUM4 2-274)
- T1 construct: Full-length, on transiently transfected HEK293 cells, or natively expressed on HeLa, U251 and A549 cells; also called huTMEM106B; huTMEM
- method_notes: FACS U251;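 also: flow cytometry of cells exposed to antibody (purified at 10 µg/mL, or hybridoma supernatant) for 1 h on ice, with propidium iodide-positive dead cells gated out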
MFI reference
# print the numeric value only

INSERT INTO measurements (binder, meas_value) VALUES
  ('anti-TMEM106B antibody TM-3 (antibody, V domains shown) VH: QVTLKESGPGIVQPSQTLSLTCSFSGFSLNTLGRGVGWIRQPSGKGLEWLAKIWWNDDKFYYPALKSRLTISKDTSKNQIFLKIANVDTADSATYYCARIAGGTGAAYWGQGTTLTVSS VL: DIVMTQAAFSNPVTLGTSASISCRSSKSLLHSNGITYLYWYLQKPGQSPQLLISQMSSLASGVPDRFSSGGSGTDFTLRISRVEAEDVGVFYCAQNLELPWTFGGGTKLELK', 1080);

Give its MFI value. Item: anti-TMEM106B antibody TM-15 (antibody, V domains shown, mouse IgG from hybridoma) VH: QVQLQQPGAEFVRPGASVKLSCKASGYTFTNYWITWVKQRPGHGLEWIGDIYPGSGNSNYNESFKRKATLTVDTSSSTAYMHLSSQTSEDSAVYFCARKAYGGFPYWGQGTLVTVSA VL: DIQMTQSPASLSVSVGETVTITCRVSENIYNNLAWYQQKQEKSPQLLVFAATNLADGVPSRFSGSGSGTQFSLKINSLQSEDFGTYYCQHFWDTPFTFGSGTKLEIK
382

Recorded values, source patent US20230303681A1.
